- Assay system: acyl coenzyme A: cholesterol O-acyltransferase (ACAT) (Oryctolagus cuniculus)
- Construct: The microsomal fraction was isolated by centrifugation and stored frozen
- Sequence (G1SFD9 1-524): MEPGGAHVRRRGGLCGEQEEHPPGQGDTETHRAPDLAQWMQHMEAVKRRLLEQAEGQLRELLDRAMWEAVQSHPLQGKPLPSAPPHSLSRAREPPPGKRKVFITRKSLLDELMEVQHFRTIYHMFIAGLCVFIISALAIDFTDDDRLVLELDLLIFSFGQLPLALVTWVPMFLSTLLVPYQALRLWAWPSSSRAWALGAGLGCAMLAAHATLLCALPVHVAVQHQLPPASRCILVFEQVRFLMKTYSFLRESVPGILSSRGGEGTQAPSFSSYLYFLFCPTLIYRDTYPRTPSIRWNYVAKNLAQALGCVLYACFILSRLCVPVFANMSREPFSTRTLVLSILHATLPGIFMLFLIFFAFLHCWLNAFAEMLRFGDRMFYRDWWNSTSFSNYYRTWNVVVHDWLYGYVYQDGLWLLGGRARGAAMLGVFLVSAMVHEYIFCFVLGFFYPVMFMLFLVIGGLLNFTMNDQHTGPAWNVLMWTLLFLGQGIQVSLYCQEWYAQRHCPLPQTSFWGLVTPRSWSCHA
- Assay overview: Inhibition of ACAT catalyzed formation of cholesterol oleate from endogenous cholesterol and exogenous 14C oleate
- Study conditions: concentration at which 50% of the cholesterol esterification reaction is inhibited; rabbit jejunum mucosa microsomal fraction
Parameter measured: pIC50
# pIC50: negative log10 of molar concentration; output just the value

{"columns": ["Compound", "Number"],
 "data": [
  ["CCCCCCCC/C=C\\CCCCCCCC(=O)CCCNC(=O)CCNC(C)=O", 3.95]
]}

**Q:** State its pIC50: CCCCCCCC/C=C\CCCCCCCC(O)CCCNC(=O)CCNC(=O)C(O)C(C)(C)CO (centres unmarked)
**A:** 4.24

====

Entries annotated with measured IC50
- Assay system: acyl coenzyme A: cholesterol O-acyltransferase (ACAT) (Oryctolagus cuniculus)
- Construct: The microsomal fraction was isolated by centrifugation and stored frozen
- Sequence (G1SFD9 1-524): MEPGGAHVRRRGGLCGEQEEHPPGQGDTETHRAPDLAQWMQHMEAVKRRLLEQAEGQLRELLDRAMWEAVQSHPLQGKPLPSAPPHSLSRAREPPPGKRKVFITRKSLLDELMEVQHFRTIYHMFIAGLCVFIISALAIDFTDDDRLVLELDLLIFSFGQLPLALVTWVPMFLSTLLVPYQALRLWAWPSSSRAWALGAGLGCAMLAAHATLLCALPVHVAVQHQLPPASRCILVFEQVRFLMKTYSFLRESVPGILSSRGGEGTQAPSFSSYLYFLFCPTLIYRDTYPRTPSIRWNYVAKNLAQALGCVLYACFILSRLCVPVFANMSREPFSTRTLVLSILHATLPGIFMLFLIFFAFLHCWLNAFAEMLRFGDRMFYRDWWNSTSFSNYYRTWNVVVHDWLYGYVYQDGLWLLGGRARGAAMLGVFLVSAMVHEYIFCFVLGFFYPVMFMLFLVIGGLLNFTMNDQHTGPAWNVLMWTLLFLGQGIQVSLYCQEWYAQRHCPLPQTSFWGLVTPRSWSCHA
- Assay overview: Inhibition of ACAT catalyzed formation of cholesterol oleate from endogenous cholesterol and exogenous 14C oleate
- Study conditions: concentration at which 50% of the cholesterol esterification reaction is inhibited; rabbit jejunum mucosa microsomal fraction
Answer in µM, number only, no unit symbol.

Solved entries:
{"columns": ["Compound", "Assay system", "IC50 [µM]"],
 "data": [
  ["CCCCCCCC/C=C\\CCCCCCCC(=O)NCCNC(C)=O", "acyl coenzyme A: cholesterol O-acyltransferase (ACAT) (Oryctolagus cuniculus)", 39],
  ["CCCCCCCC/C=C\\CCCCCCCC(=O)SCCNC(=O)CCNC(=O)[C@H](O)C(C)(C)CO", "acyl coenzyme A: cholesterol O-acyltransferase (ACAT) (Oryctolagus cuniculus)", 103],
  ["CCCCCCCC/C=C\\CCCCCCCC(=O)NCCNC(=O)CCNC(=O)C1OC(C)(C)OCC1(C)C (stereo not drawn)", "acyl coenzyme A: cholesterol O-acyltransferase (ACAT) (Oryctolagus cuniculus)", 1.2]
]}

Attention now turns to another entry.
**Q:** State its IC50: CCCCCCCC/C=C\CCCCCCCC(=O)CCCNC(C)=O
**A:** 66

====

- Assay system: acyl coenzyme A: cholesterol O-acyltransferase (ACAT) (Oryctolagus cuniculus)
- Construct: The microsomal fraction was isolated by centrifugation and stored frozen
- Assay overview: Inhibition of ACAT catalyzed formation of cholesterol oleate from endogenous cholesterol and exogenous 14C oleate
- Study conditions: concentration at which 50% of the cholesterol esterification reaction is inhibited; rabbit jejunum mucosa microsomal fraction
pIC50: −log10 of the molar value.
Parameter measured: pIC50

Solved entries:
{"columns": ["Chemical structure", "Result"],
 "data": [
  ["CCCCCCCC/C=C\\CCCCCCCC(=O)OCCNC(C)=O", "< 4.00"],
  ["CCCCCCCC/C=C\\CCCCCCCC(=O)SCCNC(=O)CCNC(C)=O", "< 4.00"],
  ["CCCCCCCC/C=C\\CCCCCCCC(=O)SCCNC(C)=O", "< 4.00"],
  ["CCCCCCCC/C=C\\CCCCCCCC(=O)NCCNC(=O)CCNC(C)=O", "< 4.00"]
]}

Attention now turns to another entry.
**Q:** State its pIC50: CCCCCCCC/C=C\CCCCCCCC(=O)OCCNC(=O)CCNC(C)=O
**A:** < 3.82
